- System: A549/ATCC NSCLC
- testDetails: NCI-60 one-dose screen, 48 h (100 = growth as untreated, 0 = no growth, -100 = all killed)
- cond: 10 µM unless noted
About 83,000 compounds went through this panel and 20% of them were active in at least one assay; those are over-represented in the sample as a whole.
measuredMetric: growth (%)
Write the value in % as a bare number.

growth lookup needed for "CCCc1cc2c(cc1Br)OCO2" , thanks.
80.7

Now try Clc1ccc(C2CC(c3cccc(Nc4ccncc4)c3)=NN2c2ccc(Cl)cc2)cc1 (stereo not given) .
9.48

Now try "COc1ccc(-c2nc(N/N=C/c3cccc(Br)c3)nc(N3CCOCC3)c2C#N)cc1" .
62.2

Now try "COc1ccc(C(=O)c2cc3c(N)c(C(=O)Nc4cccc(OC)c4)sc3nc2C)cc1" .
25.3

Now try "NC(=S)N/N=C/c1ccc(OC(=O)COc2cc(Cl)c(Cl)cc2Cl)cn1" .
107

Now try "COc1ccc(CNC(=O)COc2ccc(/C=N/Nc3nc4ccccc4s3)cc2)cc1" .
26.5

Now try "COc1ccc(C2=C(c3ccccc3)c3ccc(OC(C)=O)cc3OC2(C)C)cc1" .
87.7

Now try COC(=O)C1=C(C(=O)ONCCN(C)C)C2C=CC1(C(Cc1ccccc1)Nc1ccc(F)cc1)O2 (stereo not given) .
98.1

Now try "Nc1nc(N)nc(NCc2ccccc2)n1" .
101

Now try "CN(C)C(=O)OCc1nc2c(N3CCOCC3)nc(-c3ccccc3)nc2n1C" .
-29.6
